Origin of the recorded values: patent US7118895B2

tested on: Crude diglycosidase; assay: Examination of temperature in the conversion into isoflavone aglycons by diglycosidase using soybean materials; format: biochemical, Penicillium multicolor IAM7153; design: concentration or dose not given beside the values; conditions: 45 °C; heat treatment of enzyme: no; 3 h
Property Measured: Decomposition efficiency of daidzin family in roasted soy flour

Give recorded Decomposition efficiency of daidzin family in roasted soy flour with Crude diglycosidase for the following compound: O=c1c(-c2ccc(O)cc2)coc2cc(O[C@@H]3O[C@H](CO)[C@@H](O)[C@H](O)[C@H]3O)ccc12 [daidzin]
2.7%

Give recorded Decomposition efficiency of daidzin family in roasted soy flour with Crude diglycosidase for the following compound: O=c1c(-c2ccc(O)cc2)coc2cc(O)ccc12 [daidzein]
59.4%

Give recorded Decomposition efficiency of daidzin family in roasted soy flour with Crude diglycosidase for the following compound: CC(=O)OC[C@H]1O[C@@H](Oc2ccc3c(=O)c(-c4ccc(O)cc4)coc3c2)[C@H](O)[C@@H](O)[C@@H]1O [acetyldaidzin, 6″-O-acetyldaidzin]
37.9%

----------
tested on: Crude diglycosidase; assay: Examination of temperature in the conversion into isoflavone aglycons by diglycosidase using soybean materials; format: biochemical, Penicillium multicolor IAM7153; details: 45° C., heat treatment of enzyme no, reaction time 6 h
Property Measured: Decomposition efficiency of daidzin family in concentrated soybean protein (%)
Numeric answer only, unit % assumed.

Please report the recorded Decomposition efficiency of daidzin family in concentrated soybean protein for CC(=O)OC[C@H]1O[C@@H](Oc2ccc3c(=O)c(-c4ccc(O)cc4)coc3c2)[C@H](O)[C@@H](O)[C@@H]1O .
42.9

Please report the recorded Decomposition efficiency of daidzin family in concentrated soybean protein for O=c1c(-c2ccc(O)cc2)coc2cc(O)ccc12 .
55.5

Please report the recorded Decomposition efficiency of daidzin family in concentrated soybean protein for O=c1c(-c2ccc(O)cc2)coc2cc(O[C@@H]3O[C@H](CO)[C@@H](O)[C@H](O)[C@H]3O)ccc12 .
1.7

----------
system: β-Xylosidase derived from pectinase G; assay: Reactivity toward various isoflavone glycosides (HPLC); format: biochemical; parameters: unit not given here; conditions: Reaction time 3 h; 55 °C, pH 4.0
Property Measured: glucoside

Please report the recorded glucoside for COc1cc2c(=O)c(-c3ccc(O)cc3)coc2cc1O[C@@H]1O[C@H](CO)[C@@H](O)[C@H](O)[C@H]1O .
97.6

Please report the recorded glucoside for CC(=O)OC[C@H]1O[C@@H](Oc2cc(O)c3c(=O)c(-c4ccc(O)cc4)coc3c2)[C@H](O)[C@@H](O)[C@@H]1O .
99.8

Please report the recorded glucoside for COc1cc2c(=O)c(-c3ccc(O)cc3)coc2cc1O[C@@H]1O[C@H](COC(C)=O)[C@@H](O)[C@H](O)[C@H]1O .
100

----------
tested on: Crude diglycosidase; assay: Examination of pH in the conversion into isoflavone aglycons by diglycosidase using soybean materials; format: biochemical, Penicillium multicolor IAM7153; conditions: pH2, heat treatment of enzyme no, reaction time 6 h, 55° C.
Provide the recorded Decomposition efficiency of daidzin family in roasted soy flour for the entries that follow.
Reply: number alone, nothing else.

Give recorded Decomposition efficiency of daidzin family in roasted soy flour with Crude diglycosidase for the following compound: CC(=O)OC[C@H]1O[C@@H](Oc2ccc3c(=O)c(-c4ccc(O)cc4)coc3c2)[C@H](O)[C@@H](O)[C@@H]1O [acetyldaidzin, 6″-O-acetyldaidzin]
42.4

Give recorded Decomposition efficiency of daidzin family in roasted soy flour with Crude diglycosidase for the following compound: O=c1c(-c2ccc(O)cc2)coc2cc(O)ccc12 [daidzein]
4.5

Give recorded Decomposition efficiency of daidzin family in roasted soy flour with Crude diglycosidase for the following compound: O=c1c(-c2ccc(O)cc2)coc2cc(O[C@@H]3O[C@H](CO)[C@@H](O)[C@H](O)[C@H]3O)ccc12 [daidzin]
53.1
